- Tested on: surinam grass
- experimental.protocol: Test B pre/postemergence surinam grass
- Format: in vivo, Brachiaria decumbens
- condition: Preemergence, Rate 500 g/ha; scale of 0 to 10 where 0 is no effect and 10 is complete control
Listing of entries alongside the reported B. signalgrass plant response rating.
I only need the number, thanks.

Q) // fetch B. signalgrass plant response rating given entry COCC(C)n1c(=O)on(C(=O)N(c2ccc(F)cc2F)C(C)C)c1=O (centres unmarked) [Compound 352]
A) 7

Q) Identify measured B. signalgrass plant response rating corresponding to CC(C)N(C(=O)n1oc(=O)n(CCl)c1=O)c1ccc(Cl)cc1 [Compound 422]
A) 0

Q) Find the measured B. signalgrass plant response rating of CC(C)N(C(=O)n1oc(=O)n(-c2ccc3ccccc3c2)c1=O)c1ccccc1 [Compound 332] and report it.
A) 0

Q) Provide only the value of recorded B. signalgrass plant response rating for CC(C)N(C(=O)n1oc(=O)n(C)c1=O)c1ccccc1 [Compound 409]
A) 9

---
Q) Give reported B. signalgrass plant response rating value for CC(C)N(C(=O)n1oc(=O)n(C(C)CCl)c1=O)c1ccccc1 (centres unmarked) [Compound 411]
A) 10

FYI, the data here is from patent US6737383B1.
